Taken from patent US20260209247A1.

Could you please report measured pIC50 for the items listed next?
Target: nucleotide exchange on hKRASG12C mediated by hSOS1 (Homo sapiens, UniProt Q07889)
Sequence (Q07889 564-1049): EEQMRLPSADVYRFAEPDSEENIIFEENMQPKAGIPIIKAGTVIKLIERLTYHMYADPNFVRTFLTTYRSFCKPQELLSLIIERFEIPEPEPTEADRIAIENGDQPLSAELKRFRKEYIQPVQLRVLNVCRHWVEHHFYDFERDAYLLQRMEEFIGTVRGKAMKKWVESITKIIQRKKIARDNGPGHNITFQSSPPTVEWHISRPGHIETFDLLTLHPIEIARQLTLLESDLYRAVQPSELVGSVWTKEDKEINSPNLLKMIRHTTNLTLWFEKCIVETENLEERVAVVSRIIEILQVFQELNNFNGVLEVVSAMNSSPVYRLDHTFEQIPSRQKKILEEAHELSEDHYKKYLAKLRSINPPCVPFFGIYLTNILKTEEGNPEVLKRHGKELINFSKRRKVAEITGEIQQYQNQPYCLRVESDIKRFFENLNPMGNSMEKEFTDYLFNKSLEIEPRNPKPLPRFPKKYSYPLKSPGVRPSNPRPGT
pIC50: −log10 of the molar value.

Exercise: Give the reported value of pIC50 for this record: CCc1nc(N[C@H](C)c2cccc(C(F)(F)C(C)(C)O)c2F)c2cc3c(cc2n1)N(C)C(=O)C3(C)C
Key: 6.89 to 7.51

Exercise: Give the reported value of pIC50 for this record: Cc1nc(N[C@H](C)c2cccc(C(F)(F)C(C)(C)O)c2F)c2cc3c(cc2n1)C(C)(C)CC(=O)N3C
Key: 7.52 to 9.00

Exercise: Give the reported value of pIC50 for this record: Cc1nc(N[C@H](C)c2cccc(C(F)(F)CO)c2F)c2cc3c(cc2n1)OC(C)CN3C (single isomer, unassigned) [Compound 36b]
Key: 7.52 to 9.00

Exercise: Give the reported value of pIC50 for this record: CCn1c(=O)n(C)c2cc3nc(C)nc(N[C@H](C)c4cccc(C(F)(F)C(C)(C)O)c4F)c3cc21
Key: 7.52 to 9.00
